- ASSAY NAME: yeast display, Sf9 membrane polyspecificity reagent, FACS + sequencing; frameworks hold sequencing errors
MEASURE: polyreactivity (PSR sort gate)

entry_sequence=QVQLVESGGGLLQAGGSLRLSCADSGSTFSRYSMGWYRQAPGKEREFVAAISRSGASTYYADSVKGRFTISRDNEMNTVNLQMNSLKPEDTAVYYCNTRRWRFVKYGYWGQGTQVTVSS data_value="high polyreactivity"
entry_sequence=QVQLVESGGGLVQAGGILRLSCASSGITFRQYAMEWYRQAPGKERELVATITSRGGSTYYADSVKGRFTISRDNAKNSVYLQMISLKPEDTADYYCAAKTPTKDRGSDFDYWGQCTQVTVSS data_value="high polyreactivity"
entry_sequence=QVQLVESGGGLVQAGGSLRLSCAASGSTFYANPMGWYRQAPGKERELLAAITSGGSTNYADSVKGRFTISRDNAKITVYLQMISLKPEDTAVYYCATQVNRERHAEDYWGQGTQVTVSS data_value="low polyreactivity"
entry_sequence=QVQLVESGGGLVQAGGSLRLSCAASGSTFSWYAMGWYRQAPGKERELVAAITRSGGRTYYADSVKGRFTISRDNAKNTVYLQMNSLKPEDTAVYYCAAVQYKSPHNYWGQGTQVTVSS data_value="high polyreactivity"
entry_sequence=QVQLVESGGGLVQAGGSLRLSCAASARTFYYYAMGWYRQAPGKERELVAAISWSGGRTYYADSVKGRFTISRDNAKNTVYLQMNSLKPEDTAVYYFAVPYPAEGYGGDYWGQGTQVTVSS data_value="low polyreactivity"
entry_sequence=QVQLVESGGGLVQAGGSLRLSCAASGSIFYRNAMGWYIQAPGKERELVAAISRRGGITYYADSVKGRFTISRDNAKNTVYLQMNSLKPEDTAVYYCYTDTGGMDYWGQGTQVTVSS data_value="high polyreactivity"
entry_sequence=QVQLVESGGGLVQAGGSLRLSCAASGRTFYRYAMGWYRQAPGKEREFVAAISNGGSNTRYADSVKGRFTISRDNAKNTVYLQMNSLKPEDTAVYYCAADYKRNQEVDYWGQGTQVTVSS data_value="high polyreactivity"
entry_sequence=QVQLVESGGGLVQAGVRLRLSCPASGFIFDWYTMGWYRQAPGKERELVAAITIGGSTDYADSVKGRFTISRDNAKNTVYLQMNSLKPEDTAVYYCNALWYLSGTWYDYWGQGTQVTVSS data_value="low polyreactivity"
entry_sequence=QVQLVESRGGLVQAGGTLRLSCAPSGLTSYGNTRGWDIPAPGKERELVAAISKRGTSTYYADSVKGRFTISRDNAMNTVYLQMNSLKPEDTAVYYCAAAYRGREVEYISWGQGTQVTVSS data_value="high polyreactivity"
entry_sequence=QVQLVESGGGLVQAGGSLRLSCAASGSTFHGYAMGWYRQEPGKERELVAAITSGDSTNYADSVKGRFTISRDNAKNTVYLQMNSLKPEDTAVYYCNAEGSSVLTGYWGYPPYWDTYDYWGQGTQVTVSS data_value="low polyreactivity"
entry_sequence=QVQLVESGGGLVPAGGSLRLSCAASGSTFHYYTMGWYRQAPGKERELVAAISWRGTSTYYADSVKGRFTISRDNAKNTVYLQMNSLKAEDTGVYYCAVRSSPGAGYYYWGQGTQVTVSS data_value="high polyreactivity"
entry_sequence=QVQLVESGGGLVQAGGSLRLSCAASGSTFYRYAMGWYRQAPGKERELVAAISGSGGRTYYADSVKGRFTISRDNAKNTVYLQMNSLKPEDTAVYYCATRFGQRSDYWGQGTQVTVSS data_value="high polyreactivity"
entry_sequence=QVQLVESGGGLVQAGGSLRLSCAASGSTFYIYAMGWYRQAPGKERELVATISRGGSTNYADSVKGRFTISRDNAKNTVYLQMNSLKPEDTAVYYCAAEAAFTSYWWSVTYPYDYWGQGTQVTVSS data_value="high polyreactivity"
entry_sequence=QVQLVESGGGLVQAGGSLRLSCAASGRIFGVYAMGWYRQAPGKERELVAAIRGDGSTNYADSVKGRFTISRDNAKNTVYLQMNSLKPEDTAVYYCATDLGIYSGSPWGYYYWGQGTQVTVSS data_value="low polyreactivity"
entry_sequence=QVQLVESGGGLVQAGGSLRLSCAASGRIFVINAMGWYRQAPGKERELVADITWSGGSTYADSVKGRFTISRDNAKNTVYLQMNSLKPEETAVYYCAKQRGGQPRSSTYYYWGQGTQVTVSS data_value="high polyreactivity"
entry_sequence=QVQLVESGGGLVQAGGSLRLSCDASGITFLNYAMGWYRQAPGKERELVAAIDTRGGRTNYADSVKGRFTISRDNAKNTVYLQMNSLKPEDTAVYYCAADPFYWYRSVRGEYWGQGTQVTVSS data_value="low polyreactivity"
entry_sequence=QVQLVESGGGLVQAGGSLRLSCAASGRTSGFNTMGWYRQAPGKERELVAAISFSGGSTYYADSVKGRFTISRDNAKNTVYLQMNSLKPEDTAVYYCNALYRYLYRSGDYWGLGTQVTVSS data_value="low polyreactivity"
entry_sequence=QVQLVESGGGLVQAGGSLRLSCAASGIIFDEYAMGWYRQAPGKERELVATISSGGDTNYADSVKGRFTISRDNAKHTFYLQMNSLKPEDTALYYCAATVYDGYSPYDYDYWGQGTQVTVSS data_value="low polyreactivity"
entry_sequence=QVQLVESGGRLVHAGGSLRLSCAASGSTFERNLMGWYSEAPGKERELVAAISRVSSTNYADSVKGRFTISRDNAKNTVYLQMNSVKPEDTAVYSCAADRAGSIMNYWGQGTQVTVSS data_value="low polyreactivity"
entry_sequence=QVQLVDSGGGLVQAGGSLRLSCAASGSIFRYYAMGWYRQAPGKEREFVAAITYSGGSTHYADSVKGRFTISRDNEKNTVYLQMNSLKPEDTAVYYCAADYYWRVHYGYWGLGTQVTVSS data_value="high polyreactivity"
entry_sequence=QVQLVESGGGLVQAGGSLRLSCAASGFTSNYYAMGWYRQAPGKERELVAAITTGGSTHYADSVKGRFTISRDNAKNTVYLQMNSLKPEDTAVYYCAAGTNRQQQRYFHPGGYYQYNYWGQGSQVTVSS data_value="low polyreactivity"

Just for reference, the nanobody polyreactivity screen of Harvey et al. (2022) is where these values come from.
